Biological target: MMP-2 (Homo sapiens, UniProt P08253)
Construct: made in house; host or cells: MMP-2-transfected p2AHT2 cells
Sequence (P08253 110-660): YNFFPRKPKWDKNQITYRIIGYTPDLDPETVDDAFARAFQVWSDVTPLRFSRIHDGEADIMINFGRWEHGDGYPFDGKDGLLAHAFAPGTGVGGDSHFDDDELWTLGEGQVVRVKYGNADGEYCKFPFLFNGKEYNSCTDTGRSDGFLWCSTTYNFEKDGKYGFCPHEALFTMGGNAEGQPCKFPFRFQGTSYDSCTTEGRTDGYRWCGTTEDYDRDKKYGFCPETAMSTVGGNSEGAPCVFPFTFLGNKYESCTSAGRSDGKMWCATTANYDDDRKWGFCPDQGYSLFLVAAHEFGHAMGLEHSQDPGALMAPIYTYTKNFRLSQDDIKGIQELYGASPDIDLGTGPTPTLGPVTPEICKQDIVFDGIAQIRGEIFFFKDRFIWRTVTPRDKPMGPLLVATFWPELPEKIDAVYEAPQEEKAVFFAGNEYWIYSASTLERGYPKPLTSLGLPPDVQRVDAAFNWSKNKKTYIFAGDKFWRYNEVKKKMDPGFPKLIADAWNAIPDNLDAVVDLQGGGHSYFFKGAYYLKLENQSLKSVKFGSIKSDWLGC
Assay: In vitro MMP inhibition, Ki determination (fluorogenic substrate II)
Type: biochemical
Conditions: value outside parentheses; read-out: MMP-2 Ki
Result Type: Ki
A complete answer gives the number followed by the unit.

{"columns": ["Compound", "Ki"],
 "data": [
  ["O=C(NO)C1(S(=O)(=O)N2CCC(c3ccc(-c4cccs4)c(F)c3)CC2)CCOCC1", "0.361 nM"],
  ["Cc1cc(N2CCN(S(=O)(=O)C3(C(=O)NO)CCOCC3)CC2)ccc1OC(C)C", "22.5 nM"],
  ["O=C(NO)C1(S(=O)(=O)N2CCN(c3ccc(-c4ccc(F)cc4F)cn3)CC2)CCOCC1", "0.73 nM"],
  ["O=C(NO)C1(S(=O)(=O)N2CCC(COCc3ccc(OC(F)(F)F)cc3)CC2)CCOCC1", "1.41 nM"],
  ["O=C(NO)C1(S(=O)(=O)N2CCN(c3ccc(-c4nn[nH]n4)cc3)CC2)CCOCC1", "27.9 nM"],
  ["Cc1cccc(-c2csc(N3CCN(S(=O)(=O)C4(C(=O)NO)CCOCC4)CC3)n2)c1 [Example 414]", "2660 nM"],
  ["CCCCCc1ccc(N2CCN(S(=O)(=O)C3(C(=O)NO)CCN(C4CC4)CC3)CC2)cc1", "0.662 nM"],
  ["O=C(NO)C1(S(=O)(=O)N2CCC(COCC(F)(F)C(F)(F)C(F)(F)F)CC2)CCOCC1", "37.5 nM"]
]}

Please examine the following record next.
Test system MMP-2 (Homo sapiens, UniProt P08253); read-out Ki; what value for O=C(NO)C1(S(=O)(=O)N2CCN(c3ccc(-c4ccc(Cl)c(Cl)c4)cc3)CC2)CCOCC1 ?
3.58 nM

----------
In this section, each of the molecules is paired with its reported Ki.
Molecular target: MMP-2 (Homo sapiens, UniProt P08253)
Construct: made in house; host or cells: MMP-2-transfected p2AHT2 cells
Sequence (P08253 110-660): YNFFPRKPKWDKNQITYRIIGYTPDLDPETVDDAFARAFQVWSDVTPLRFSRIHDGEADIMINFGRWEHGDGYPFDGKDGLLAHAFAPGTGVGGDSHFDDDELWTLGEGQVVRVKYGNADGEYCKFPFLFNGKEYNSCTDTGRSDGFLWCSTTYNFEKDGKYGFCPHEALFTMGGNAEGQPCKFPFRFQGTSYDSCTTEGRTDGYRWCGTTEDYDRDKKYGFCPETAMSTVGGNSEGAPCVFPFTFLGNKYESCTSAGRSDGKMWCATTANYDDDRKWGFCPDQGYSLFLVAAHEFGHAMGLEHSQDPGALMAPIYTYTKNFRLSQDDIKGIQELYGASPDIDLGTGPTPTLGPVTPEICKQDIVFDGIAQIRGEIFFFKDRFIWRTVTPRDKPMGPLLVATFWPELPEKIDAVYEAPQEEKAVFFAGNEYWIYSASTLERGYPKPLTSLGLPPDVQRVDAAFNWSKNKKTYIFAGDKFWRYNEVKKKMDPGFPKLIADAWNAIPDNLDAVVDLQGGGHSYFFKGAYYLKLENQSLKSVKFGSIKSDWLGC
Assay: In vitro MMP inhibition, Ki determination (fluorogenic substrate II)
Format: biochemical
Conditions: value outside parentheses; read-out: MMP-2 Ki
All answers are understood in nM, so give the number only.

Below, each entry is followed by its recorded Ki result.
{"columns": ["Molecule", "Result Type", "Units Symbol", "Reported Result"],
 "data": [
  ["CCCCOc1ccc(N2CCN(S(=O)(=O)C3(C(=O)NO)CCN(Cc4ccccc4)CC3)CC2)cc1F", "Ki", "nM", 1.55],
  ["O=C(NO)C1(S(=O)(=O)N2CCN(c3ncc(-c4cccc(-c5ccccc5)c4)s3)CC2)CCOCC1", "Ki", "nM", 201],
  ["COCCN1CCC(C(=O)NO)(S(=O)(=O)N2CCC(c3ncc(CC(C)C)s3)CC2)CC1", "Ki", "nM", 103],
  ["O=C(NO)C1(S(=O)(=O)N2CCC(c3ccc(CCCC(F)(F)F)cc3)CC2)CCN(C2CC2)CC1", "Ki", "nM", 1.26]
]}

Which value of Ki has been reported for CCCCc1ccc(C2CCN(S(=O)(=O)C3(C(=O)NO)CCNCC3)CC2)nc1 in the records?
11.2

Tell me the measured Ki of CCCCc1ccc(C2CCN(S(=O)(=O)C3(C(=O)NO)CCOCC3)CC2)nc1 [Example 307] , please.
0.505

Looking for the measured Ki of O=C(NO)C1(S(=O)(=O)N2CCC(c3ccc(CCC(F)(F)F)cn3)CC2)CCOCC1 , can you help?
0.978

What does the record list as Ki for O=C(NO)C1(S(=O)(=O)N2CCN(c3ccc(OCC4CC4)c(F)c3)CC2)CCOCC1 ?
0.58

----------
Listed compounds paired with reported pKi
molecular target: MMP-13 (Homo sapiens, UniProt P45452); construct: made in house; host or cells: baculovirus / insect cells; assay: MMP-13 inhibition (in vitro Ki); type: biochemical; conditions: Table 10; read-out: MMP-13 Ki
Note: pKi values are expressed as the negative base-10 logarithm of concentration in M.

Record excerpt, results attached:
{"columns": ["Compound", "Result Type", "Reported Result"],
 "data": [
  ["CCC(CC)(C(=O)NO)S(=O)(=O)N1CCC(Oc2ccc(SC(F)(F)F)cc2)CC1", "pKi", 8.97],
  ["COCCC(C(=O)NO)S(=O)(=O)N1CCC(Oc2ccc(SC(F)(F)F)cc2)CC1 (stereo not shown)", "pKi", 9.01],
  ["O=C(CCCCC1CCN(S(=O)(=O)C2(C(=O)NO)CCOCC2)CC1)N1CCc2ccccc21", "pKi", 9.64]
]}

Which pKi is reported for this compound? COCCC(CCOC)(C(=O)NO)S(=O)(=O)N1CCC(Oc2ccc(SC(F)(F)F)cc2)CC1
9.35

----------
Parameter: Ki. Scope: all listed entries.
biological target: MMP-13 (Homo sapiens); construct: made in house; host or cells: baculovirus / insect cells; test: In vitro MMP inhibition, Ki determination (fluorogenic substrate II); type: biochemical; conditions: value outside parentheses; read-out: MMP-13 Ki
Number in nM, nothing else.

Use these answered entries as a reference point.
{"columns": ["Compound Structure String", "System Under Test", "Ki, nM"],
 "data": [
  ["CCCCOc1ccc(N2CCN(S(=O)(=O)C3(C(=O)NO)CCN(C(=O)CC)CC3)CC2)cc1", "MMP-13 (Homo sapiens)", 0.484],
  ["O=C(NO)C1(S(=O)(=O)N2CCC(COCC(F)(F)C(F)F)CC2)CCOCC1", "MMP-13 (Homo sapiens)", 509]
]}

# next molecule below
# Ki lookup, item O=C(NO)C1(S(=O)(=O)N2CCN(c3ncc(-c4ccc(F)cc4)s3)CC2)CCOCC1
0.236

----------
Readings of pKi for the listed molecules
target: MMP-2 (Homo sapiens, UniProt P08253); construct: made in house; host or cells: MMP-2-transfected p2AHT2 cells; test: In vitro MMP inhibition, Ki determination (fluorogenic substrate II); type: biochemical; details: value outside parentheses; read-out: MMP-2 Ki
Reminder that pKi is minus the log10 of a molar concentration.

{"columns": ["Compound Structure String", "pKi"],
 "data": [
  ["CCCCOc1ccc(N2CCN(S(=O)(=O)C3(C(=O)NO)CCN(CCOC)CC3)CC2)c(F)c1", 9.09]
]}

Look up pKi for this molecule: O=C(NO)C1(S(=O)(=O)N2CCN(c3ccc(CCC(F)(F)C(F)(F)F)cc3)CC2)CCN(C2CC2)CC1
9.21

I'd like to know its pKi. The molecule in question is CCCCc1ccc(C2CCN(S(=O)(=O)C3(C(=O)NO)CCN(CCOC)CC3)CC2)nc1
9.16

I'd like to know its pKi. The molecule in question is O=C(NO)C1(S(=O)(=O)N2CCN(c3ncc(-c4ccc(-c5ccccc5)cc4)s3)CC2)CCOCC1
9.40

Entry under review: CCCCCC/C=C/C1CCN(S(=O)(=O)C2(C(=O)NO)CCOCC2)CC1 . Reported pKi?
9.08

Requested read-out: pKi. Entry: CCc1ccc(N2CCN(S(=O)(=O)C3(C(=O)NO)CCCC3)CC2)nc1
9.56

Look at this molecule and give its reported pKi. CCCCCc1cccc(N2CCN(S(=O)(=O)C3(C(=O)NO)CCOCC3)CC2)c1
7.18

Could you tell me which pKi is on file for CCCCOc1ccc(N2CCN(S(=O)(=O)C3(C(=O)NO)CCN(Cc4cccnc4)CC3)CC2)cc1F ?
9.31
